- target desc: ErbB4 on neonatal rat cardiomyocytes (rat) (UniProt Q62956)
- Sequence (Q62956 26-1308): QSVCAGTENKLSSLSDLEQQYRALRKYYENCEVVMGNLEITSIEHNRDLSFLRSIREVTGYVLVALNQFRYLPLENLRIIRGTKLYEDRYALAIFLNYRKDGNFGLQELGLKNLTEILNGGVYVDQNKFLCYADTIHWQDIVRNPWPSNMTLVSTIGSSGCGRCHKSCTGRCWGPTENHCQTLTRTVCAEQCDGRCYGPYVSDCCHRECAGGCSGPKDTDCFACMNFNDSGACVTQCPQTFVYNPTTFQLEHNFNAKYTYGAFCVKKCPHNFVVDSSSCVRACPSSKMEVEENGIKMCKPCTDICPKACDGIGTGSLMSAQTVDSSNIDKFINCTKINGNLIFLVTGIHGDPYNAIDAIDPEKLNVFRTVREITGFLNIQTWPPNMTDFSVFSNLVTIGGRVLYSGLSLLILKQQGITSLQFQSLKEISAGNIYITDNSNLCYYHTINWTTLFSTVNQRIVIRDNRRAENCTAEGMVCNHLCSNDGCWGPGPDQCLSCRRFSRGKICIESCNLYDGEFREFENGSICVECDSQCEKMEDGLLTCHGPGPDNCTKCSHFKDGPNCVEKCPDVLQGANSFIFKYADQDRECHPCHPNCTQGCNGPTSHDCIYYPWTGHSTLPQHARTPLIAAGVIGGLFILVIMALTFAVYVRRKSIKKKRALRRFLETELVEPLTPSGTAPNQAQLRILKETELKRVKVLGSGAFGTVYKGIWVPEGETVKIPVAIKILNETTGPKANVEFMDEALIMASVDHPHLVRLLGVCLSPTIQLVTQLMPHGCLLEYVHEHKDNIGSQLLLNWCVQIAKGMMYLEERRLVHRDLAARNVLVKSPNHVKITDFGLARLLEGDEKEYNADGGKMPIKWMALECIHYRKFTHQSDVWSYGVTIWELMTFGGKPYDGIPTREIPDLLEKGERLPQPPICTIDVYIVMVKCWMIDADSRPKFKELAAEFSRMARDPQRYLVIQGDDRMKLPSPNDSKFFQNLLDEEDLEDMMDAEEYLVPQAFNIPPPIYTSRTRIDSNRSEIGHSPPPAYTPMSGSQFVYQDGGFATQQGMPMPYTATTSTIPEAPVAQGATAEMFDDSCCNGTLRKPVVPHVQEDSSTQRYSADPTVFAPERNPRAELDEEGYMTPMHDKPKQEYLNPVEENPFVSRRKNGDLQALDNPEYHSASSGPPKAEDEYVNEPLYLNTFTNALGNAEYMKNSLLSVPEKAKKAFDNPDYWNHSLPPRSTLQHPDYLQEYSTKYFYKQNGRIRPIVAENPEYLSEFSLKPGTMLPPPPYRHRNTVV
- procedure summary: cell-based or functional assay
value type: CM % Agonism AVG (%)

Item: huNRG1(S177-F229) 6xHis (ligand) SHLVKCAEKEKTFCVNGGECFMVKDLSNPSRYLCKCPNEFTGDRCQNYVMASFGGGGEGGGGAGGGGHHHHHH | CM % Agonism AVG: 97.5

Item: huNRG1(S177-F229)(NRGE1D) (E47S_D48S_F49E_M50L) 6xHis (ligand) SHLVKCGESHKSFCVNGGECYMVEGSSIPSRYLCKCPNEFTGDRCQSSELASFGGGGEGGGGAGGGGHHHHHH | CM % Agonism AVG: 96

Item: huNRG1(S177-Q237)(3G3)::GG::huFcSEFL2 (Pb) (Fc fusion) SHLVKCGEREKTFCVNGGECFMIEHLSIPSRFLCKCPNEFTGDRCQEDFMASFYKAEELYQGGDKTHTCPPCPAPELLGGPSVFLFPPKPKDTLMISRTPEVTCVVVDVSHEDPEVKFNWYVDGVEVHNAKTKPCEEQYGSTYRCVSVLTVLHQDWLNGKEYKCKVSNKALPAPIEKTISKAKGQPREPQVYTLPPSREEMTKNQVSLTCLVKGFYPSDIAVEWESNGQPENNYKTTPPVLDSDGSFFLYSKLTVDKSRWQQGNVFSCSVMHEALHNHYTQKSLSLSPGK | CM % Agonism AVG: 70

Item: huNRG1(S177-Q237)(NRGE1C)::GG::huFcSEFL2 (Pb) (Fc fusion) SHLVKCGEKHKSFCVNGGECFMIEGPSNPSRYLCKCPNEFTGDRCQEDFMASFYKAEELYQGGDKTHTCPPCPAPELLGGPSVFLFPPKPKDTLMISRTPEVTCVVVDVSHEDPEVKFNWYVDGVEVHNAKTKPCEEQYGSTYRCVSVLTVLHQDWLNGKEYKCKVSNKALPAPIEKTISKAKGQPREPQVYTLPPSREEMTKNQVSLTCLVKGFYPSDIAVEWESNGQPENNYKTTPPVLDSDGSFFLYSKLTVDKSRWQQGNVFSCSVMHEALHNHYTQKSLSLSPGK | CM % Agonism AVG: 82

Item: huNRG1(S177-Q237)(NRGE1N)::GG::huFcSEFL2 (Pb) (Fc fusion) SHLVKCGENDKSFCVNGGECYMVEGSSIPSRYLCKCPNEFTGDRCQDFFMASFYKAEELYQGGDKTHTCPPCPAPELLGGPSVFLFPPKPKDTLMISRTPEVTCVVVDVSHEDPEVKFNWYVDGVEVHNAKTKPCEEQYGSTYRCVSVLTVLHQDWLNGKEYKCKVSNKALPAPIEKTISKAKGQPREPQVYTLPPSREEMTKNQVSLTCLVKGFYPSDIAVEWESNGQPENNYKTTPPVLDSDGSFFLYSKLTVDKSRWQQGNVFSCSVMHEALHNHYTQKSLSLSPGK | CM % Agonism AVG: 26

Item: huNRG1(S177-F229)(NRGE1D) (E47T_D48S_F49L_M50L) 6xHis (ligand) SHLVKCGESHKSFCVNGGECYMVEGSSIPSRYLCKCPNEFTGDRCQTSLLASFGGGGEGGGGAGGGGHHHHHH | CM % Agonism AVG: 99.8

# credit: patent US20220402985A1
